FYI, the data here is from patent US6770649B2.

molecular target: NK-2 receptors (Cavia porcellus); construct: the NK-2 receptors present in the gall-bladder preparations; from tissue; host or cells: Pirbright-White guinea pig: isolated gall-bladder (A2); anaesthetised whole animal (A3); assay: NK-2-receptor-antagonistic effectiveness in vivo in anaesthetised guinea pigs (NKA test stimulus); design: species or system guinea pig; details: guinea pig, iv; from AUC over 120 min after administration; respiratory resistance; read-out: ED50 Respiratory resistance, i.v. AUC over 120 min
Sequence (Q64077 whole entry): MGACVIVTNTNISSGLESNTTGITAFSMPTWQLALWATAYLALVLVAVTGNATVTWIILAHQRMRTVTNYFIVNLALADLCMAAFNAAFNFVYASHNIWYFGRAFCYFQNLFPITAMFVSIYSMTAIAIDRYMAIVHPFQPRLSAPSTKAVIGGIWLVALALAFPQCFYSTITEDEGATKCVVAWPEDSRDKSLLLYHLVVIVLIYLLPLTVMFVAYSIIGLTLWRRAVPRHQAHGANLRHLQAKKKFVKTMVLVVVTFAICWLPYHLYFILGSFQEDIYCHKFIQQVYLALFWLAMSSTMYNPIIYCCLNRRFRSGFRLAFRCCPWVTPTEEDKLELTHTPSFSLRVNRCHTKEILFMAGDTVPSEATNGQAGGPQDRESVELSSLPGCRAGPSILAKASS
assay-readout: ED50 (µmol/kg)
Number in µmol/kg, nothing else.

Known ED50 results, listed for orientation:
>>> reported_measurement("CN(C[C@@H](CCN1CCN(C(c2ccsc2)[C@H](O)CO)CC1)c1ccc(Cl)c(Cl)c1)C(=O)c1ccccc1 (stereo partly shown) [Example 5]")
0.008
>>> reported_measurement("CN(CC(CCN1CCN(C(c2ccco2)[C@H](O)[C@@H](O)[C@H](O)CO)CC1)c1ccc(Cl)c(Cl)c1)C(=O)c1ccccc1 (mixture of isomers) [Example 13]")
0.023

Quick check: ED50 of CN(C[C@@H](CCN1CCN(C(c2ccsc2)[C@H](O)[C@H](O)CO)CC1)c1ccc(Cl)c(Cl)c1)C(=O)c1ccccc1 (stereo partly shown) [Example 15] ?
0.042

Would you kindly share the measured ED50 for CN(C[C@@H](CCN1CCN(C(c2ccsc2)[C@H](O)[C@@H](O)[C@H](O)CO)CC1)c1ccc(Cl)c(Cl)c1)C(=O)c1ccccc1 (stereo partly shown) [Example 1] ?
0.008

###

biological target: NK-2 receptors (Cavia porcellus); construct: the NK-2 receptors present in the gall-bladder preparations; from tissue; host or cells: Pirbright-White guinea pig: isolated gall-bladder (A2); anaesthetised whole animal (A3); test: NK-2-receptor-antagonistic effectiveness in vivo in anaesthetised guinea pigs (NKA test stimulus); parameters: species or system guinea pig; settings: guinea pig, po; from AUC over 180 min after administration; respiratory resistance; read-out: ED50 Respiratory resistance, p.o. AUC over 180 min.
Recorded measurements of ED50, one per entry
Please give a number only; it is taken to be in µmol/kg.

// solved cases for ED50 follow
>>> reported_measurement("CC(=O)OC[C@@H](OC(C)=O)[C@H](OC(C)=O)[C@@H](OC(C)=O)C(c1ccsc1)N1CCN(CC[C@H](CN(C)C(=O)c2ccccc2)c2ccc(Cl)c(Cl)c2)CC1 (some centres unmarked)")
6.7
>>> reported_measurement("CN(CC(CCN1CCN(C(c2ccco2)[C@H](O)[C@@H](O)[C@H](O)CO)CC1)c1ccc(Cl)c(Cl)c1)C(=O)c1ccccc1 (mixture of isomers)")
2
>>> reported_measurement("CN(C[C@@H](CCN1CCN(C(c2ccsc2)[C@H](O)CO)CC1)c1ccc(Cl)c(Cl)c1)C(=O)c1ccccc1 (some centres unmarked)")
2.7
>>> reported_measurement("CN(C[C@@H](CCN1CCN(C(c2ccsc2)[C@H](O)[C@@H](O)[C@H](O)CO)CC1)c1ccc(Cl)c(Cl)c1)C(=O)c1ccccc1 (some centres unmarked)")
1.8

Query molecule follows.
Using the record for CN(C[C@@H](CCN1CCN(C(c2ccsc2)[C@H](O)[C@H](O)CO)CC1)c1ccc(Cl)c(Cl)c1)C(=O)c1ccccc1 (some centres unmarked) , report its ED50.
3.2

###

molecular target: human NK-2 receptor (Homo sapiens, UniProt P21452); construct: expressed in transfected cells; host or cells: CHO cells (membrane preparation); test: Binding power of the test substances to NK-2 receptors in vitro ([3H]-SR 48968 displacement, CHO cell membranes); settings: displacement of [3H]-SR 48968, 90 min incubation, average of at least three measurements, 10^-6 to 10^-10 mol/l, read-out: pKi, affinity to human NK-2 receptors (converted)
Sequence (P21452 whole entry): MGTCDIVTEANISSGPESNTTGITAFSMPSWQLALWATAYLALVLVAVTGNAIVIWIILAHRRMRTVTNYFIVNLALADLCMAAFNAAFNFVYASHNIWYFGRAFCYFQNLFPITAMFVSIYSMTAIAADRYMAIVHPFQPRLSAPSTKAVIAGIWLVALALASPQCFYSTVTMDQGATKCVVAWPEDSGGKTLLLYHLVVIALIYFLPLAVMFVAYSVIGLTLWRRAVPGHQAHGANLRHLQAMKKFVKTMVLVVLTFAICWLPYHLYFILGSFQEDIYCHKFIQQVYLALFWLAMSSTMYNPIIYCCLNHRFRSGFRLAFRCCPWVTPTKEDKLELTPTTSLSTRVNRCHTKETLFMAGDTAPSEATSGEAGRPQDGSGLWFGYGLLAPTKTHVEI
Quick reference: Ki of the listed items.

Example entries and their recorded answers appear below.
>>> reported_measurement("CN(C[C@@H](CCN1CCN(C(c2ccoc2)[C@H](O)CO)CC1)c1ccc(Cl)c(Cl)c1)C(=O)c1ccccc1 (stereo partly shown)")
"≤ 1 nM"
>>> reported_measurement("CN(CC(CCN1CCN(C(c2ccccc2)[C@H](O)[C@@H](O)[C@H](O)CO)CC1)c1ccc(Cl)c(Cl)c1)C(=O)c1ccccc1 (mixture of isomers)")
"≤ 10 nM"
>>> reported_measurement("CN(CC(CCN1CCN(C(c2ccsc2)[C@H](O)[C@@H](O)[C@H](O)CO)CC1)c1ccc(Cl)c(Cl)c1)C(=O)c1ccccc1 (mixture of isomers)")
"≤ 10 nM"

// moving on: another record for Ki
What measured Ki goes with CN(CC(CCN1CCN(C(c2ccsc2)[C@@H](O)[C@H](O)[C@H](O)CO)CC1)c1ccc(Cl)c(Cl)c1)C(=O)c1ccccc1 (mixture of isomers) ?
≤ 10 nM
